Assay: Drug uptake in Sprague-Dawley rat kidney at 0.3 mg/kg, iv administered as single dose after 2 hrs by LCMS analysis
Assay type: ADME, organism-based
Conditions: read-out: Drug uptake
READOUT_TYPE: concentration at 2 h (ng/g)

>>> endpoint_value("Cc1cc(/C=C/C(C)(C)C(=O)NC(C)(C)C(=O)NCC(C)(C)N)ccc1Cc1cc([C@@H]2O[C@H](CO)[C@@H](O)[C@H](O)[C@H]2O)c(O)cc1C(C)C")
1060
>>> endpoint_value("COc1cc(C(C)C)c(Cc2ccc(/C=C/C(C)(C)C(=O)NC(C)(C)C(=O)NCCN(C)C)cc2)cc1[C@@H]1O[C@H](CO)[C@@H](O)[C@H](O)[C@H]1O")
1090
>>> endpoint_value("Cc1cc(O)c([C@@H]2O[C@H](CO)[C@@H](O)[C@H](O)[C@H]2O)cc1Cc1ccc(CCNC(=O)NC(CO)(CO)CO)cc1")
1900

* * *

Assay: Drug uptake in Sprague-Dawley rat kidney at 0.3 mg/kg, iv administered as single dose after 24 hrs by LCMS analysis
Type: ADME, organism-based
Details: read-out: Drug uptake
READOUT_TYPE: concentration at 24 h (ng/g)

>>> endpoint_value("Cc1cc(/C=C/C(C)(C)C(=O)NC(C)(C)C(=O)NCC(C)(C)N)ccc1Cc1cc([C@@H]2O[C@H](CO)[C@@H](O)[C@H](O)[C@H]2O)c(O)cc1C(C)C")
83.8
>>> endpoint_value("Cc1cc(O)c([C@@H]2O[C@H](CO)[C@@H](O)[C@H](O)[C@H]2O)cc1Cc1ccc(CCNC(=O)NC(CO)(CO)CO)cc1")
1110
>>> endpoint_value("COc1cc(C(C)C)c(Cc2ccc(/C=C/C(C)(C)C(=O)NC(C)(C)C(=O)NCCN(C)C)cc2)cc1[C@@H]1O[C@H](CO)[C@@H](O)[C@H](O)[C@H]1O")
104

* * *

Assay: Permeability of the compound at pH 7.4 by PAMPA assay
Assay type: ADME
Details: read-out: permeability
READOUT_TYPE: Papp (×10⁻⁶ cm/s)

>>> endpoint_value("Cc1cc(/C=C/C(C)(C)C(=O)NC(C)(C)CO)ccc1Cc1cc([C@@H]2O[C@H](CO)[C@@H](O)[C@H](O)[C@H]2O)c(O)cc1C(C)C")
0.5
>>> endpoint_value("COc1cc(C(C)C)c(Cc2ccc(/C=C/C(C)(C)C(=O)NC(C)(C)CO)cc2)cc1[C@@H]1O[C@H](CO)[C@@H](O)[C@H](O)[C@H]1O")
1.8
>>> endpoint_value("Cc1cc(/C=C/C(C)(C)C(=O)NC(C)(C)CO)ccc1Cc1cc([C@@H]2O[C@H](CO)[C@@H](O)[C@H](O)[C@H]2O)c(C)cc1C")
7.5

* * *

Experiment: Drug excretion in bile duct cannulated Sprague-Dawley rat bile at 2 mg/kg, iv administered as single dose after 24 hrs by LCMS analysis
Type: ADME, organism-based
Settings: read-out: Drug excretion
READOUT_TYPE: dose excreted at 24 h

>>> endpoint_value("Cc1cc(O)c([C@@H]2O[C@H](CO)[C@@H](O)[C@H](O)[C@H]2O)cc1Cc1ccc(CCNC(=O)NC(CO)(CO)CO)cc1")
"30.2%"

* * *

Catalogue of compounds with associated concentration at 72 h
Assay: Drug uptake in Sprague-Dawley rat kidney at 0.3 mg/kg, iv administered as single dose after 72 hrs by LCMS analysis
Assay type: ADME, organism-based
Settings: read-out: Drug uptake
READOUT_TYPE: concentration at 72 h (ng/g)

>>> endpoint_value("Cc1cc(O)c([C@@H]2O[C@H](CO)[C@@H](O)[C@H](O)[C@H]2O)cc1Cc1ccc(CCNC(=O)NC(CO)(CO)CO)cc1")
803
>>> endpoint_value("COc1cc(C(C)C)c(Cc2ccc(/C=C/C(C)(C)C(=O)NC(C)(C)C(=O)NCCN(C)C)cc2)cc1[C@@H]1O[C@H](CO)[C@@H](O)[C@H](O)[C@H]1O")
29.2
>>> endpoint_value("Cc1cc(/C=C/C(C)(C)C(=O)NC(C)(C)C(=O)NCC(C)(C)N)ccc1Cc1cc([C@@H]2O[C@H](CO)[C@@H](O)[C@H](O)[C@H]2O)c(O)cc1C(C)C")
12.5

* * *

Catalogue of compounds with associated IC50
Molecular target: Sodium/glucose cotransporter 1 (Homo sapiens)
Sequence (P13866 whole entry): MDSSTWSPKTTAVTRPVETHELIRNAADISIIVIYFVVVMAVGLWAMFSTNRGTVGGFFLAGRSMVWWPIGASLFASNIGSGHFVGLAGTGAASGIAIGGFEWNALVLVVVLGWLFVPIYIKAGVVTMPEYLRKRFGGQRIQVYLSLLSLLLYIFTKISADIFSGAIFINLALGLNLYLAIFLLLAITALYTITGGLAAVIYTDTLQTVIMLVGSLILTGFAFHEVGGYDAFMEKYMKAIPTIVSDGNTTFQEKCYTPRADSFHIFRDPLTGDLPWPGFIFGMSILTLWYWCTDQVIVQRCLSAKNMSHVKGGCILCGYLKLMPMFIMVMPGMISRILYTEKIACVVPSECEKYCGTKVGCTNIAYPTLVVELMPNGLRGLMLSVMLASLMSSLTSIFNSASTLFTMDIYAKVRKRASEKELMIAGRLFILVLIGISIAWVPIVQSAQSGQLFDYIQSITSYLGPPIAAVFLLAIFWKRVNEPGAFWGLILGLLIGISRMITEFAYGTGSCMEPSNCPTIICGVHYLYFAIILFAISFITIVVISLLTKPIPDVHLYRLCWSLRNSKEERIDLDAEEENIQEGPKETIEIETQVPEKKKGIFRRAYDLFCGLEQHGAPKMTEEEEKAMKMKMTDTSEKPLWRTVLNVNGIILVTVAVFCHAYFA
Assay: Inhibition of human SGLT1 expressed in CHOK1 cells assessed as reduction in sodium-dependent glucose uptake after 30 mins in presence of [14C]-methyl-alpha -D-glucopyranoside by microbeta counting method
READOUT_TYPE: IC50 (µM)

>>> endpoint_value("COc1cc(C(C)C)c(Cc2ccc(/C=C/C(C)(C)C(=O)NC(C)(C)CO)cc2C)cc1[C@@H]1O[C@H](CO)[C@@H](O)[C@H](O)[C@H]1O")
0.074
>>> endpoint_value("Cc1cc(C)c([C@@H]2O[C@H](CO)[C@@H](O)[C@H](O)[C@H]2O)cc1Cc1ccc(/C=C/C(C)(C)C(=O)NC(C)(C)CO)cc1C(C)C")
12.5
>>> endpoint_value("Cc1cc(O)c([C@@H]2O[C@H](CO)[C@@H](O)[C@H](O)[C@H]2O)cc1Cc1ccc(/C=C/C(C)(C)C(=O)NC(C)(C)CO)cc1")
0.021
>>> endpoint_value("Cc1cc(/C=C/C(C)(C)C(=O)NC(C)(C)CO)ccc1Cc1cc([C@@H]2O[C@H](CO)[C@@H](O)[C@H](O)[C@H]2O)c(C)cc1C")
0.111
>>> endpoint_value("Cc1cc(C)c([C@@H]2O[C@H](CO)[C@@H](O)[C@H](O)[C@H]2O)cc1Cc1ccc(/C=C/C(C)(C)C(=O)NC(C)(C)CO)cc1")
0.022
>>> endpoint_value("Cc1cc(C)c([C@@H]2O[C@H](CO)[C@@H](O)[C@H](O)[C@H]2O)cc1Cc1ccc(/C=C/C(C)(C)C(=O)NC(C)(C)CO)cc1Cl")
0.176
>>> endpoint_value("Cc1cc(/C=C/C(C)(C)C(=O)NC(C)(C)CO)ccc1Cc1cc([C@@H]2O[C@H](CO)[C@@H](O)[C@H](O)[C@H]2O)c(O)cc1C(C)C")
0.055
>>> endpoint_value("COc1cc(C(C)C)c(Cc2ccc(/C=C/C(C)(C)C(=O)NC(C)(C)C(=O)N3CCN(C)CC3)cc2C)cc1[C@@H]1O[C@H](CO)[C@@H](O)[C@H](O)[C@H]1O")
0.055
>>> endpoint_value("COc1cc(/C=C/C(C)(C)C(=O)NC(C)(C)CO)ccc1Cc1cc([C@@H]2O[C@H](CO)[C@@H](O)[C@H](O)[C@H]2O)c(C)cc1C")
1.17
>>> endpoint_value("CC(C)c1cc(O)c([C@@H]2O[C@H](CO)[C@@H](O)[C@H](O)[C@H]2O)cc1Cc1ccc(/C=C/C(C)(C)C(=O)NC(C)(C)CO)cc1")
0.023
>>> endpoint_value("COc1cc(C(C)C)c(Cc2ccc(/C=C/C(C)(C)C(=O)NC(C)(C)C(=O)N3CCNCC3)cc2C)cc1[C@@H]1O[C@H](CO)[C@@H](O)[C@H](O)[C@H]1O")
0.034
>>> endpoint_value("COc1cc(C(C)C)c(Cc2ccc(/C=C/C(C)(C)C(=O)NC(C)(C)CO)cc2)cc1[C@@H]1O[C@H](CO)[C@@H](O)[C@H](O)[C@H]1O")
0.036
>>> endpoint_value("Cc1cc(C)c([C@@H]2O[C@H](CO)[C@@H](O)[C@H](O)[C@H]2O)cc1Cc1ccc(/C=C/C(C)(C)C(=O)NC(C)(C)CO)cc1F")
0.034
